Target: acetylcholinesterase (AChE) (Homo sapiens)
Construct: purchased Sigma-Aldrich (Steinheim, Germany)
Sequence (P22303 32-614, species assumed): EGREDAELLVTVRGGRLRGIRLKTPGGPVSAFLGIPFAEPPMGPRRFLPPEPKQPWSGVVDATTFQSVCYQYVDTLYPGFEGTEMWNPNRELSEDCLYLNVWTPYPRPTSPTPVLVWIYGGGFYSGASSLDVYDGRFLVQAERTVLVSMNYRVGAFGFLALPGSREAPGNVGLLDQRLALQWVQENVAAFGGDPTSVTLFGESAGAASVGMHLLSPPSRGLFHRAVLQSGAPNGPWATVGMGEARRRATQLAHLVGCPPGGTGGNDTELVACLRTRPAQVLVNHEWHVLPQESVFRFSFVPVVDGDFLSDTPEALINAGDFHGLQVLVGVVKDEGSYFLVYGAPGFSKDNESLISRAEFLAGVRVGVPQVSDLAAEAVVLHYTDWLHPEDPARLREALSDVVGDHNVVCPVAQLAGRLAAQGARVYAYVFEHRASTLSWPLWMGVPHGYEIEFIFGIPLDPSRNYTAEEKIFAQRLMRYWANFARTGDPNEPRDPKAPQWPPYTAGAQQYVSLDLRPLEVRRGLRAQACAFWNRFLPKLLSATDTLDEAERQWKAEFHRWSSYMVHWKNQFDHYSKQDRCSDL
Assay: biochemical
Details: assayed at 100-0.1 µg/mL; mean ± S.D.; N.A. = not active; read-out: IC50 AChE (converted)
ATTRIBUTE MEASURED: IC50

>>> result("O=C(/C=C/c1ccc(O)c(O)c1)O[C@H](Cc1ccc(O)c(O)c1)C(=O)O")
"> 278 µM"
>>> result("Cc1coc2c1C(=O)C(=O)c1c-2ccc2c1CCCC2(C)C")
"> 340 µM"
>>> result("COc1ccc(-c2cc(=O)c3c(O)c(OC)c(OC)cc3o2)cc1")
"> 305 µM"
